From: patent US10722520B2

Molecular target: CTX-M-15 (Escherichia coli, UniProt Q9EXV5)
PROPERTY_LABEL: IC50
Please answer using the number first and the unit second.

// below: answered compounds
O=C(Nc1ncns1)c1ccn(C2=CC3CN(C2)C(=O)N3OS(=O)(=O)O)n1 (centres unmarked) ... 0.46 nM
O=C1N2CC(n3ccc([C@H](O)CO)n3)=CC(C2)N1OS(=O)(=O)[O-].[Na+] (some centres unmarked) ... 2.1 nM
O=C1N2CC(n3nccn3)=CC(C2)N1OS(=O)(=O)O (centres unmarked) ... 2.1 nM

Look up IC50 for this compound: O=C(Nc1ncco1)c1ccn(C2=CC3CN(C2)C(=O)N3OS(=O)(=O)[O-])n1.[Na+] (centres unmarked)
0.46 nM

Look up IC50 for this compound: O=C(CO)Nc1ccn(C2=CC3CN(C2)C(=O)N3OS(=O)(=O)[O-])n1.[Na+] (centres unmarked)
0.59 nM

Look up IC50 for this compound: NS(=O)(=O)c1cnn(C2=CC3CN(C2)C(=O)N3OS(=O)(=O)[O-])c1.[Na+] (centres unmarked)
1.4 nM

Look up IC50 for this compound: O=C1N2CC(n3cncn3)=CC(C2)N1OS(=O)(=O)[O-].[Na+] (centres unmarked)
0.66 nM

Look up IC50 for this compound: O=C(c1ccn(C2=CC3CN(C2)C(=O)N3OS(=O)(=O)[O-])n1)N1CCOCC1.[Na+] (centres unmarked) [Example 31, sulfate]
0.62 nM
